Reference source: ChEMBL document CHEMBL1137298

- Measurement target: Adenosine receptor A2b (Homo sapiens)
- Test details: Activity at human adenosine A2B receptor in CHO cells assessed as stimulation of cAMP production relative to NECA at 10 uM
Active and inactive are the calls of the source. No cut-off for these calls is given here.
Measured quantity: Activity

Known results for compounds:
CCCCc1cn(-c2nc(NC)c3ncn([C@@H]4O[C@H](C(=O)NCC)[C@@H](O)[C@H]4O)c3n2)nn1    inactive
CNc1nc(-n2cc(-c3ccccn3)nn2)nc2c1ncn2[C@@H]1O[C@H](CO)[C@@H](O)[C@H]1O    inactive
CNc1nc(-c2cn(Cc3ccccc3)nn2)nc2c1ncn2[C@@H]1O[C@H](CO)[C@@H](O)[C@H]1O    < 50%
CNc1nc(-c2cn(Cc3cccc(Cl)c3)nn2)nc2c1ncn2[C@@H]1O[C@H](CO)[C@@H](O)[C@H]1O    < 50%
CCNC(=O)[C@H]1O[C@@H](n2cnc3c(NC)nc(N=[N+]=[N-])nc32)[C@H](O)[C@@H]1O    50%
CCNC(=O)[C@H]1O[C@@H](n2cnc3c(NC)nc(-n4cc(CC5CCCC5)nn4)nc32)[C@H](O)[C@@H]1O    < 50%
CNc1nc(-n2cc(Cc3ccccc3)nn2)nc2c1ncn2[C@@H]1O[C@H](CO)[C@@H](O)[C@H]1O    < 50%

Let's switch to this compound now.
Record `CNc1nc(-n2cc(CN(C)C)nn2)nc2c1ncn2[C@@H]1O[C@H](CO)[C@@H](O)[C@H]1O` , field Activity: inactive
